assay: PBMC Acute Infection, cytotoxicity (CC50/CC90); format: cell-based; details: human, PHA-stimulated PBMCs pooled from at least two normal donors, row of isolate 00KE-KER2008, subtype A
measure name: CC50 (µM)
Numbers only; they are read as µM.

So what's the measured CC50 for this one? `CCc1c2c(nc3ccc(N)cc13)-c1cc3c(c(=O)n1C2)CNC(=O)[C@]3(O)CC` 2.53

====

Record form. Attribute: IC50. Fill in for each entry.
target: HIV-1 protease (Human immunodeficiency virus type 1 group M subtype B, UniProt P12497)

// lookup IC50 for CCc1c2c(nc3ccc(N)cc13)-c1cc3c(c(=O)n1C2)CNC(=O)[C@]3(O)CC [Compound O5-SN] > 100 µM

# IC50 lookup, item CCc1c2c(nc3ccc(O)cc13)-c1cc3c(c(=O)n1C2)CNC(=O)[C@]3(O)CC [SN38-L] > 100 µM

====

target: pNL4-3 Vif (Vif multimerization) (Human immunodeficiency virus type 1 group M subtype B); construct: expressed in transfected cells; host or cells: HEK293T; assay: Vif FqRET Multimerization Assay; assay type: cell-based, HIV
Sequence (P12504 whole entry): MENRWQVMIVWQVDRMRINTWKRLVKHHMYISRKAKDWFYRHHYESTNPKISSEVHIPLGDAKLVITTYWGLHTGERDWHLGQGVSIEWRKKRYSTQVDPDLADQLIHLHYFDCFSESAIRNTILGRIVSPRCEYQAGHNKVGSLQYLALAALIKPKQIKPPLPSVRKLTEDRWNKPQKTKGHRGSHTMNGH
So I've got a bunch of compounds here, and I need their EC50 values.
Please respond with the number in nM and leave the unit unwritten.

Please report the recorded EC50 for `CCc1c2c(nc3ccc(O)cc13)-c1cc3c(c(=O)n1C2)CNC(=O)[C@]3(O)CC` . 378

Bench note: what EC50 did `CCc1c2c(nc3ccc(N)cc13)-c1cc3c(c(=O)n1C2)CNC(=O)[C@]3(O)CC` show? 362

# lookup: EC50 of `CC[C@@]1(O)C(=O)NCc2c1cc1n(c2=O)Cc2cc3c(N)cccc3nc2-1` 3870

====

For each entry below, report its CC90 value.
test: PBMC Acute Infection, cytotoxicity (CC50/CC90); type: cell-based; details: human, row of isolate 00KE-KER2008, subtype A
# unit: µM | format: bare number

Record request: CC90 value, item `CCc1c2c(nc3ccc(OC(=O)N4CCC(N5CCCCC5)CC4)cc13)-c1cc3c(c(=O)n1C2)CNC(=O)[C@]3(O)CC` 82.8

Query: CC90; subject: `CCc1c2c(nc3ccc(O)cc13)-c1cc3c(c(=O)n1C2)CNC(=O)[C@]3(O)CC` 27.9

====

system: Vif-dependent APOBEC3G degradation; test: Vif-Dependent APOBEC3G Degradation Assay; type: cell-based, HIV; details: Human immunodeficiency virus 1, read-out: A3G degradation at
measure name: EC50 (nM)
Give the value in nM but do not write nM after it.

Which measured EC50 belongs to `CC[C@@]1(O)C(=O)NCc2c1cc1n(c2=O)Cc2cc3c(N)cccc3nc2-1` , tested on Vif-dependent APOBEC3G degradation? 1000

# query: EC50 | item `CCc1c2c(nc3ccc(OC(=O)N4CCC(N5CCCCC5)CC4)cc13)-c1cc3c(c(=O)n1C2)CNC(=O)[C@]3(O)CC` | system: Vif-dependent APOBEC3G degradation 5000

Recorded EC50 for `CCc1c2c(nc3ccc(N)cc13)-c1cc3c(c(=O)n1C2)CNC(=O)[C@]3(O)CC` with Vif-dependent APOBEC3G degradation, please? 84

# query: EC50 | item `CCc1c2c(nc3ccc(O)cc13)-c1cc3c(c(=O)n1C2)CNC(=O)[C@]3(O)CC` | system: Vif-dependent APOBEC3G degradation 99

====

tested on: 98US_MSC5016 (Subtype C); assay: PBMC Acute Infection, 98US_MSC5016; assay type: cell-based, HIV; conditions: Human immunodeficiency virus 1; PBMC, isolate 98US_MSC5016, subtype C, RT activity readout; read-out: EC50
measure name: EC50

Which EC50 is listed for `CCc1c2c(nc3ccc(N)cc13)-c1cc3c(c(=O)n1C2)CNC(=O)[C@]3(O)CC` ? 6 nM

I'd like to know its EC50. The compound in question is `CCc1c2c(nc3ccc(O)cc13)-c1cc3c(c(=O)n1C2)CNC(=O)[C@]3(O)CC` 4 nM

Entry under review: `CC[C@@]1(O)C(=O)NCc2c1cc1n(c2=O)Cc2cc3c(N)cccc3nc2-1` . Reported EC50? 60 nM

====

system: PBMCs; assay: PBMC Acute Infection, cytotoxicity (CC50/CC90); format: cell-based; settings: row of isolate 98US_MSC5016, subtype C
measure name: CC90

For the compound `CC[C@@]1(O)C(=O)NCc2c1cc1n(c2=O)Cc2cc3c(N)cccc3nc2-1` , what CC90 is on record? > 100 µM

Any idea what CC90 was measured for `CCc1c2c(nc3ccc(N)cc13)-c1cc3c(c(=O)n1C2)CNC(=O)[C@]3(O)CC` ? > 100 µM

====

experiment: PBMC Acute Infection, cytotoxicity (CC50/CC90); type: cell-based; conditions: human, PHA-stimulated PBMCs pooled from at least two normal donors, row of isolate IIIB, subtype B
measure name: CC50 (µM)
Your answer should be a plain number; it is taken to be in µM.

GET /values?readout=CC50&item= CCc1c2c(nc3ccc(N)cc13)-c1cc3c(c(=O)n1C2)CNC(=O)[C@]3(O)CC [Compound O5-SN] 6.29

====

experiment: PBMC Acute Infection, cytotoxicity (CC50/CC90); format: cell-based; conditions: human, PHA-stimulated PBMCs pooled from at least two normal donors, row of isolate 98US_MSC5016, subtype C
measure name: CC50 (µM)
# unit: µM | format: bare number

What value of CC50 has been reported for the following compound? CCc1c2c(nc3ccc(N)cc13)-c1cc3c(c(=O)n1C2)CNC(=O)[C@]3(O)CC [Compound O5-SN] 2.53

====

Please respond with reported IC50 for every item in the list.

State its IC50 on HIV-1 Integrase (Human immunodeficiency virus type 1 group M subtype B, UniProt P12497): CCc1c2c(nc3ccc(O)cc13)-c1cc3c(c(=O)n1C2)CNC(=O)[C@]3(O)CC [SN38-L] > 100 µM

Tell me reported IC50 for CCc1c2c(nc3ccc(N)cc13)-c1cc3c(c(=O)n1C2)CNC(=O)[C@]3(O)CC [Compound O5-SN] , tested with HIV-1 Integrase (Human immunodeficiency virus type 1 group M subtype B, UniProt P12497). > 100 µM

====

System: PBMCs
Assay: PBMC Acute Infection, cytotoxicity (CC50/CC90)
Format: cell-based
Conditions: row of isolate IIIB, subtype B
Description: PHA-stimulated cells from at least two normal donors were pooled (i.e. mixed together), diluted in fresh medium to a final concentration of 1×10^6 cells/mL, and plated in the interior wells of a 96-well round bottom microplate at 50 μL/well (5×10^4 cells/well). […]
Answer each item with its documented CC90.

Sample CC[C@@]1(O)C(=O)NCc2c1cc1n(c2=O)Cc2cc3c(N)cccc3nc2-1 [Compound O5-9A] — what was its CC90? > 100 µM

Entry CCc1c2c(nc3ccc(N)cc13)-c1cc3c(c(=O)n1C2)CNC(=O)[C@]3(O)CC [Compound O5-SN] : reported CC90 = ? > 100 µM

====

tested on: Vif-dependent APOBEC3G degradation; experiment: Vif-Dependent APOBEC3G Degradation Assay; type: cell-based, HIV; details: Human immunodeficiency virus 1, HEK-293T, 24 h, read-out: EC50, A3G Degradation Assay
measure name: pEC50
Formally, pEC50 is defined as -log10 of the concentration c, with c in mol/L.

Quick one: pEC50 for `CCc1c2c(nc3ccc(O)cc13)-c1cc3c(c(=O)n1C2)CNC(=O)[C@]3(O)CC` ? 7.08

Which pEC50 value belongs to `CC[C@@]1(O)C(=O)NCc2c1cc1n(c2=O)Cc2cc3c(N)cccc3nc2-1` ? 5.92

# lookup: pEC50 of `CCc1c2c(nc3ccc(N)cc13)-c1cc3c(c(=O)n1C2)CNC(=O)[C@]3(O)CC` 7.00

====

test: PBMC Acute Infection, cytotoxicity (CC50/CC90); format: cell-based; settings: human, PHA-stimulated PBMCs pooled from at least two normal donors, row of isolate 00KE-KER2008, subtype A
measure name: CC90

For the compound shown here, CCc1c2c(nc3ccc(N)cc13)-c1cc3c(c(=O)n1C2)CNC(=O)[C@]3(O)CC [Compound O5-SN] , give the reported CC90. > 100 µM

====

Would you kindly list pEC50 for each of these compounds?
tested on: 00KE_KER2008 (Subtype A); test: PBMC Acute Infection, 00KE_KER2008; type: cell-based, HIV; details: Human immunodeficiency virus 1; PBMC, isolate 00KE-KER2008, subtype A, RT activity readout; read-out: EC50
Entry type: numeric. Quantity: pEC50, the -log10 of concentration in molar units.

What does the record list as pEC50 for `CCc1c2c(nc3ccc(O)cc13)-c1cc3c(c(=O)n1C2)CNC(=O)[C@]3(O)CC` ? 8.40

Query (compound): `CCc1c2c(nc3ccc(N)cc13)-c1cc3c(c(=O)n1C2)CNC(=O)[C@]3(O)CC` ; field requested: pEC50 8.22

Look up pEC50: `CC[C@@]1(O)C(=O)NCc2c1cc1n(c2=O)Cc2cc3c(N)cccc3nc2-1` 7.30
